Test system: HeLa Kyoto;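 note: synchronized HeLa Kyoto cells (double thymidine block for G1/S, nocodazole release for mitosis), protein amounts in NP-40 versus SDS lysates quantified by mass spectrometry, three biological replicates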
Test: solubility change mitosis vs G1/S (difference of NP-40 vs SDS log2 ratios) (log2 ratio difference); higher = more soluble in mitosis
quantityMeasured: solubility change mitosis (log2)
Give bare numbers.

Worked set:
chainSequence	solubility change mitosis (log2)
MGLTISSLFSRLFGKKQMRILMVGLDAAGKTTILYKLKLGEIVTTIPTIGFNVETVEYKNICFTVWDVGGQDRIRPLWKHYFQNTQGLIFVVDSNDRERIQEVADELQKMLLVDELRDAVLLLFANKQDLPNAMAISEMTDKLGLQSLRNRTWYVQATCATQGTGLYEGLDWLSNELSKR [ARF4]	-0.374
MEEIYAKFVSQKISKTRWRPLPPGSLQTAETFATGSWDNEENYISLWSIGDFGNLDSDGGFEGDHQLLCDIRHHGDVMDLQFFDQERIVAASSTGCVTVFLHHPNNQTLSVNQQWTTAHYHTGPGSPSYSSAPCTGVVCNNPEIVTVGEDGRINLFRADHKEAVRTIDNADSSTLHAVTFLRTPEILTVNSIGQLKIWDFRQQGNEPSQILSLTGDRVPLHCVDRHPNQQHVVATGGQDGMLSIWDVRQGTMPVSLLKAHEAEMWEVHFHPSNPEHLFTCSEDGSLWHWDASTDVPEKSSLFHQGGRSSTFLSHSISNQANVHQSVISSWLSTDPAKDRIEITSLLPSRSLSVNTLDVLGPCLVCGTDAEAIYVTRHLFS [NUP43]	0.0611
MQPGSSRCEEETPSLLWGLDPVFLAFAKLYIRDILDMKESRQVPGVFLYNGHPIKQVDVLGTVIGVRERDAFYSYGVDDSTGVINCICWKKLNTESVSAAPSAARELSLTSQLKKLQETIEQKTKIEIGDTIRVRGSIRTYREEREIHATTYYKVDDPVWNIQIARMLELPTIYRKVYDQPFHSSALEKEEALSNPGALDLPSLTSLLSEKAKEFLMENRVQSFYQQELEMVESLLSLANQPVIHSASSDQVNFKKDTTSKAIHSIFKNAIQLLQEKGLVFQKDDGFDNLYYVTREDKDLHRKIHRIIQQDCQKPNHMEKGCHFLHILACARLSIRPGLSEAVLQQVLELLEDQSDIVSTMEHYYTAF [OBFC1]	-0.0863
MEDSGKTFSSEEEEANYWKDLAMTYKQRAENTQEELREFQEGSREYEAELETQLQQIETRNRDLLSENNRLRMELETIKEKFEVQHSEGYRQISALEDDLAQTKAIKDQLQKYIRELEQANDDLERAKRATIMSLEDFEQRLNQAIERNAFLESELDEKENLLESVQRLKDEARDLRQELAVQQKQEKPRTPMPSSVEAERTDTAVQATGSVPSTPIAHRGPSSSLNTPGSFRRGLDDSTGGTPLTPAARISALNIVGDLLRKVGALESKLASCRNLVYDQSPNRTGGPASGRSSKNRDGGERRPSSTSVPLGDKGLDTSCRWLSKSTTRSSSSC [NDE1]	0.568

// switching to the query sequence
solubility change mitosis (log2) recorded for this sequence, MDKVCAVFGGSRGIGRAVAQLMARKGYRLAVIARNLEGAKAAAGDLGGDHLAFSCDVAKEHDVQNTFEELEKHLGRVNFLVNAAGINRDGLLVRTKTEDMVSQLHTNLLGSMLTCKAAMRTMIQQQGGSIVNVGSIVGLKGNSGQSVYSASKGGLVGFSRALAKEVARKKIRVNVVAPGFVHTDMTKDLKEEHLKKNIPLGRFGETIEVAHAVVFLLESPYITGHVLVVDGGLQLIL [CBR4] , is -0.0343
